# SYSTEM_UNDER_TEST: pERK1/2 (Thr202/Tyr204), PANC-1 (KRAS G121D) (Homo sapiens, UniProt P01116, G12D)
# Construct: pERK1/2 HTRF read-out
# Sequence (P01116 1-188 isoform P01116-2 G12D): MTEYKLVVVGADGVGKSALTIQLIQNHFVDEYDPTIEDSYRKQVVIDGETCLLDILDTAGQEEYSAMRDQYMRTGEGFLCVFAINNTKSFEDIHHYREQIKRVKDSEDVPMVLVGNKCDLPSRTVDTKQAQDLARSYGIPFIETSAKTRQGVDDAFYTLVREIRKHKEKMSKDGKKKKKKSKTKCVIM
# TEST_SUMMARY: Assay of intracellular pERK1/2 (Thr202/Tyr204) phosphorylation in PANC-1 cells (KRAS G12D)
# Assay type: cell-based
# APPLIED_CONDITIONS: pERK1/2, 2 days, read-out: PANC-1 (KRAS G12D) IC50
Listed molecules paired with reported IC50

Worked set:
[[record]]
molecule = "C[C@H](c1cccnc1N)N1CCOc2nc(-c3cc(O)cc(Cl)c3C3CC3)c(F)c3nc(OC[C@@H]4CCN4CC(F)F)nc1c23 (single isomer, unassigned) [Compound 20]"
readout_name = "IC50"
test_result = "> 1000 nM"

[[record]]
molecule = "Cc1cc(N)cc(-c2nc3c4c(nc(OC[C@@]56CCCN5CC5(CC5(F)F)C6)nc4c2F)N(C(C)c2cccnc2N)CCO3)c1C(F)(F)F (stereo partly drawn) [Compound 237]"
readout_name = "IC50"
test_result = "1 nM"


Would you kindly look at the next entry?
Name the reported IC50 value associated with the molecule C#Cc1c(F)ccc2cc(O)cc(-c3nc4c5c(nc(OC[C@@]67CCCN6C[C@H](F)C7)nc5c3F)N(C3CC3)CCO4)c12 [Compound 197]
> 100 nM

====

# SYSTEM_UNDER_TEST: pERK1/2 (Thr202/Tyr204), PANC-1 (KRAS G121D) (Homo sapiens, UniProt P01116, G12D)
# Construct: pERK1/2 HTRF read-out
# TEST_SUMMARY: Assay of intracellular pERK1/2 (Thr202/Tyr204) phosphorylation in PANC-1 cells (KRAS G12D)
# Assay type: cell-based
# APPLIED_CONDITIONS: pERK1/2, 2 days, read-out: PANC-1 (KRAS G12D) IC50
READOUT_NAME: IC50 (nM)
Output spec: scalar in nM, unitless text.

As a guide, the following entries are already answered.
[[record]]
compound = "[2H]C([2H])(Oc1nc2c3c(nc(-c4cc(N)c(F)c(C)c4C(F)(F)F)c(F)c3n1)OCCN2C(C)c1cccnc1N)[C@@H]1CCC([2H])([2H])N1C([2H])([2H])[2H] (some centres unmarked) [Compound 104]"
result_unit = "nM"
test_result = 24

[[record]]
compound = "Cc1n[nH]c2cc3ccccc3c(-c3nc4c5c(nc(OC[C@@]67CCCN6C[C@H](F)C7)nc5c3F)N(C(C)c3cccnc3N)[C@@H](C)CO4)c12 (some centres unmarked) [Compound 401]"
result_unit = "nM"
test_result = 0.3


Okay, next one:
What value of IC50 on pERK1/2 (Thr202/Tyr204), PANC-1 (KRAS G121D) (Homo sapiens, UniProt P01116, G12D) does Cc1c(F)c(N)cc(-c2nc3c4c(nc(OC[C@@]56CCCN5C[C@@H](F)C6)nc4c2F)N(C(C)c2cccnc2N)CCO3)c1C(F)(F)F (some centres unmarked) [Compound 165] have?
47

====

Form field: IC50 (one value per entry).
# SYSTEM_UNDER_TEST: pERK1/2 (Thr202/Tyr204), NCI-1H358 (KRAS G12C) (Homo sapiens, UniProt P01116, G12C)
# Construct: pERK1/2 HTRF read-out
# Sequence (P01116 1-188 isoform P01116-2 G12C): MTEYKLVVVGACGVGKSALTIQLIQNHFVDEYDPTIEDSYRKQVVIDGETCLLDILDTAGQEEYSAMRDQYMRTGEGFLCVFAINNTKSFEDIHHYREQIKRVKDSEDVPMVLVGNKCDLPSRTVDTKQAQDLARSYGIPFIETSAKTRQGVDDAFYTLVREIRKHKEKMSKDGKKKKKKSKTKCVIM
# TEST_SUMMARY: Assay of intracellular pERK1/2 (Thr202/Tyr204) phosphorylation in NCI-H358 cells (KRAS G12C)
# Format: cell-based
# APPLIED_CONDITIONS: pERK1/2, 2 days, read-out: NCI-H358 (KRAS G12C) IC50
Report as a plain number; the unit nM is understood.

[[record]]
molecule = "Cc1cc(N)cc(-c2nc3c4c(nc(OCC5(CN(C)C)CC5)nc4c2F)N(C(C)c2cccnc2N)CCO3)c1C(F)(F)F (stereo not drawn)"
test_result = 3


Consider the record given below.
Under pERK1/2 (Thr202/Tyr204), NCI-1H358 (KRAS G12C) (Homo sapiens, UniProt P01116, G12C): IC50 value of Cc1c(F)c(N)cc(-c2nc3c4c(nc(OC[C@@]56CCCN5CC5(CC5(F)F)C6)nc4c2F)N(C(C)c2cccnc2N)CCO3)c1C(F)(F)F (single isomer, unassigned) ?
0.2

====

# SYSTEM_UNDER_TEST: pERK1/2 (Thr202/Tyr204), NCI-1H358 (KRAS G12C) (Homo sapiens, UniProt P01116, G12C)
# Construct: pERK1/2 HTRF read-out
# TEST_SUMMARY: Assay of intracellular pERK1/2 (Thr202/Tyr204) phosphorylation in NCI-H358 cells (KRAS G12C)
# Type: cell-based
# APPLIED_CONDITIONS: pERK1/2, 2 days, read-out: NCI-H358 (KRAS G12C) IC50
READOUT_NAME: pIC50
Hey, just a heads up that pIC50 is the negative log base 10 of the concentration in molar.

[[record]]
compound = "Cc1cc2[nH]ncc2c(-c2nc3c4c(nc(OC[C@@]56CCCN5C[C@H](F)C6)nc4c2F)N(C(C)c2cccnc2N)[C@@H](C)CO3)c1Cl (stereo partly drawn)"
readout_name = "pIC50"
test_result = 9.30

[[record]]
compound = "[2H]C1([2H])CC[C@@]2(COc3nc4c5c(nc(-c6cc(N)c(F)c(C)c6C(F)(F)F)c(F)c5n3)OCCN4C(C)c3cccnc3N)C[C@@H](F)CN12 (stereo partly drawn)"
readout_name = "pIC50"
test_result = 9.70

[[record]]
compound = "Cc1c(C(F)(F)F)c(-c2nc3c4c(nc(OC[C@@]56CCCN5C[C@H](F)C6)nc4c2F)N(C(C)c2cccnc2N)[C@@H](C)CO3)c2c(Cl)n[nH]c2c1F (stereo partly drawn) [Compound 381]"
readout_name = "pIC50"
test_result = 9.70

[[record]]
compound = "CC(c1cccnc1N)N1CCOc2nc(-c3c(C(F)(F)F)ccc4[nH]ncc34)c(F)c3nc(OC[C@@]45CCCN4C[C@H](F)C5)nc1c23 (stereo partly drawn)"
readout_name = "pIC50"
test_result = 8.70


Lab note: next compound to report on.
Find the recorded pIC50 belonging to Cc1c(F)c(N)cc(-c2nc3c4c(nc(OC[C@@]56CCCN5CC(F)(F)C6)nc4c2F)N(C(C)c2cccnc2N)CCO3)c1C(F)(F)F (stereo partly drawn) and report it.
9.30

====

# SYSTEM_UNDER_TEST: pERK1/2 (Thr202/Tyr204), PANC-1 (KRAS G121D) (Homo sapiens, UniProt P01116, G12D)
# Construct: pERK1/2 HTRF read-out
# TEST_SUMMARY: Assay of intracellular pERK1/2 (Thr202/Tyr204) phosphorylation in PANC-1 cells (KRAS G12D)
# Assay type: cell-based
# APPLIED_CONDITIONS: pERK1/2, 2 days, read-out: PANC-1 (KRAS G12D) IC50
# Text: Example 2: Assay of intracellular pERK1/2 (Thr202/Tyr204)phosphorylation 1. […] Fluorescence ratio=fluorescence value665 nm/fluorescence value615 nm Inhibition rate (%)=100−((fluorescence ratio of compound well−fluorescence ratio of negative control well)/(fluorescence ratio of positive control well−fluorescence ratio of negative control well))×100 […]
# IC50 listing for each entry below
Write down the numeric answer in nM and omit the unit.

Completed entries (count: 2):
[[record]]
compound = "Cc1cc(N)cc(-c2nc3c4c(nc(OC[C@H]5CCCN5C)nc4c2F)N(C(C)c2cccnc2N)CCO3)c1C(F)(F)F (single isomer, unassigned) [Compound 109]"
result_unit = "nM"
test_result = 41

[[record]]
compound = "[2H]C1([2H])CN(C(C)c2cccnc2N)c2nc(OC[C@@]34CCCN3C[C@H](F)C4)nc3c(F)c(-c4cc(N)c(F)c(C)c4C(F)(F)F)nc(c23)O1 (single isomer, unassigned) [Compound 184]"
result_unit = "nM"
test_result = 28


Returns the measured IC50 for the input compound. Input: CCc1c(F)ccc2cc(O)cc(-c3nc4c5c(nc(OCC6(CN(C)C7CC7)CC6)nc5c3F)N(C(C)c3cccnc3N)[C@@H](C)CO4)c12 (some centres unmarked) [Compound 397]
0.7

====

Examples of compounds with documented IC50 follow.
# SYSTEM_UNDER_TEST: pERK1/2 (Thr202/Tyr204), NCI-1H358 (KRAS G12C) (Homo sapiens, UniProt P01116, G12C)
# Construct: pERK1/2 HTRF read-out
# TEST_SUMMARY: Assay of intracellular pERK1/2 (Thr202/Tyr204) phosphorylation in NCI-H358 cells (KRAS G12C)
# Type: cell-based
# APPLIED_CONDITIONS: pERK1/2, 2 days, read-out: NCI-H358 (KRAS G12C) IC50
# Excerpt: Example 2: Assay of intracellular pERK1/2 (Thr202/Tyr204)phosphorylation 1. […] Fluorescence ratio=fluorescence value665 nm/fluorescence value615 nm Inhibition rate (%)=100−((fluorescence ratio of compound well−fluorescence ratio of negative control well)/(fluorescence ratio of positive control well−fluorescence ratio of negative control well))×100 […]

[[record]]
compound = "C[C@@H](c1cccnc1N)N1CCOc2nc(-c3c(C(F)(F)F)ccc4[nH]ncc34)c(F)c3nc(OC[C@@H]4CCN4CC(F)F)nc1c23 (single isomer, unassigned)"
system_under_test = "pERK1/2 (Thr202/Tyr204), NCI-1H358 (KRAS G12C) (Homo sapiens, UniProt P01116, G12C)"
test_result = "2 nM"


Enter reported IC50 observed with pERK1/2 (Thr202/Tyr204), NCI-1H358 (KRAS G12C) (Homo sapiens, UniProt P01116, G12C) for Cc1c(F)c(N)cc(-c2nc3c4c(nc(OC[C@@]56CCCN5C[C@H](F)C6)nc4c2F)N(C(C)c2cccnc2N)[C@H](C)CO3)c1C(F)(F)F (single isomer, unassigned) [Compound 256]
> 100 nM

Then what about the compound [2H]C1([2H])Oc2nc(-c3cc(N)c(F)c(C)c3C(F)(F)F)c(F)c3nc(OC[C@@H]4C[C@@H](F)CN4C)nc(c23)N(C(C)c2cccnc2N)C1([2H])[2H] (single isomer, unassigned) [Compound 202] ?
0.4 nM
